- assayTarget: UniProt:A3RGC1
- Sequence (A3RGC1 whole entry): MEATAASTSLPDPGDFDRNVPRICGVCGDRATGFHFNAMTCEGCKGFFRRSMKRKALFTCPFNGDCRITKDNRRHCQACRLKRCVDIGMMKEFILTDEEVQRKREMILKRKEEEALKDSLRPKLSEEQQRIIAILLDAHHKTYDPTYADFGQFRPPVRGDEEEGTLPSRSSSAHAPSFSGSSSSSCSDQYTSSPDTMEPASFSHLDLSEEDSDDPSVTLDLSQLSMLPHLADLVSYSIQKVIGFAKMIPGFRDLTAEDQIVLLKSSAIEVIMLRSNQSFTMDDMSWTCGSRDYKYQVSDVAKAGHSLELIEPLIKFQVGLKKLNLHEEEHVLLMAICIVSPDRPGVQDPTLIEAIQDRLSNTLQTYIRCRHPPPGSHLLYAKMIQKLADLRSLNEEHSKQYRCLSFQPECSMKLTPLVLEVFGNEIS
- assayDetails: Affinity for porcine Vitamin D3 receptor
- Design: reference not given here
quantityKind: Activity
Answers are plain numbers.

C=C1/C(=C\C=C2/CCC[C@]3(C)[C@@H]([C@@H](C)[C@H](C)CCC(C)(C)O)CC[C@@H]23)C[C@@H](O)C[C@@H]1O 2000
C=C1/C(=C\C=C2/CCC[C@]3(C)[C@@H]([C@H](C)CCCC(C)(C)O)CC[C@@H]23)C[C@@H](O)C[C@@H]1O 100
C=C1/C(=C\C=C2/CCC[C@]3(C)[C@@H]([C@H](C)[C@@H](C)CCC(C)(C)O)CC[C@@H]23)C[C@@H](O)C[C@@H]1O 33
C=C1/C(=C\C=C2/CCC[C@]3(C)[C@@H]([C@H](C)[C@H](C)CCC(C)(C)O)CC[C@@H]23)C[C@@H](O)C[C@@H]1O 1.7

Prompt line: Give me measured Activity, please, for this compound: "C=C1/C(=C\C=C2/CCC[C@]3(C)[C@@H]([C@@H](C)[C@@H](C)CCC(C)(C)O)CC[C@@H]23)C[C@@H](O)C[C@@H]1O"
Response line: 1

---

- Tested on: Rattus norvegicus
- assayDetails: In vivo calcemic activity expressed as relative activity for Bone calcium mobilization (BCM) in vitamin D deficient rats
I'd be grateful if you could share measured relative activity for these entries.
Answers are plain numbers, in %.

Past entries and their recorded results:
C=C1/C(=C\C=C2/CCC[C@]3(C)[C@@H]([C@H](C)[C@H](C)CCC(C)(C)O)CC[C@@H]23)C[C@@H](O)C[C@@H]1O 32
C=C1/C(=C\C=C2/CCC[C@]3(C)[C@@H]([C@H](C)CCCC(C)(C)O)CC[C@@H]23)C[C@@H](O)C[C@@H]1O 100
C=C1/C(=C\C=C2/CCC[C@]3(C)[C@@H]([C@@H](C)[C@@H](C)CCC(C)(C)O)CC[C@@H]23)C[C@@H](O)C[C@@H]1O 5
C=C1/C(=C\C=C2/CCC[C@]3(C)[C@@H]([C@@H](C)[C@H](C)CCC(C)(C)O)CC[C@@H]23)C[C@@H](O)C[C@@H]1O 220

With those in mind, consider the next molecule.
Prompt line: Give me measured relative activity, please, for this molecule: "C=C1/C(=C\C=C2/CCC[C@]3(C)[C@@H]([C@H](C)[C@@H](C)CCC(C)(C)O)CC[C@@H]23)C[C@@H](O)C[C@@H]1O"
Response line: 26

---

- assayTarget: Vitamin D-binding protein (Rattus norvegicus)
- Sequence (whole entry): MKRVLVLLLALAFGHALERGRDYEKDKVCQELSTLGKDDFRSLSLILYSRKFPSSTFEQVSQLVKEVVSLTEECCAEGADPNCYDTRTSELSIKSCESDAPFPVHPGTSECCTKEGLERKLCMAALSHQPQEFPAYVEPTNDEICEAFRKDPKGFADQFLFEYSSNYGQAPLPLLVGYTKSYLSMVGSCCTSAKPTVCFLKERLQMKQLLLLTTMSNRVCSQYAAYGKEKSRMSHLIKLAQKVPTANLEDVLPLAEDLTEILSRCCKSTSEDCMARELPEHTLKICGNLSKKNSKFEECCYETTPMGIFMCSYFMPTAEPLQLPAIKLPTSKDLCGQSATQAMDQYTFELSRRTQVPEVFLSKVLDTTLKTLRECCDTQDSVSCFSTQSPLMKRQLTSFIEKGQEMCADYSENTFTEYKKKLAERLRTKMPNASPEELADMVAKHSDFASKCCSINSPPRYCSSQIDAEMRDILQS
- assayDetails: Binding affinity for rat Vitamin D binding protein
- Set-up: reference not given here
quantityKind: Activity
Give bare numbers.

Past entries and their recorded results:
C=C1/C(=C\C=C2/CCC[C@]3(C)[C@@H]([C@H](C)CCCC(C)(C)O)CC[C@@H]23)C[C@@H](O)C[C@@H]1O 100
C=C1/C(=C\C=C2/CCC[C@]3(C)[C@@H]([C@H](C)[C@@H](C)CCC(C)(C)O)CC[C@@H]23)C[C@@H](O)C[C@@H]1O 67
C=C1/C(=C\C=C2/CCC[C@]3(C)[C@@H]([C@H](C)[C@H](C)CCC(C)(C)O)CC[C@@H]23)C[C@@H](O)C[C@@H]1O 0.45

Prompt line: Provide Activity, recorded with Vitamin D-binding protein (Rattus norvegicus), of "C=C1/C(=C\C=C2/CCC[C@]3(C)[C@@H]([C@@H](C)CCCC(C)(C)O)CC[C@@H]23)C[C@@H](O)C[C@@H]1O"
Response line: 4000

---

I'd be grateful if you could share measured relative activity for these entries.
- Test system: HL-60
- assayDetails: In vitro activity expressed as relative activity to induce the differentiation of human promyelocytic leukemia (HL-60) cells by NBT reduction assay
One number for each entry, in %.

compound	relative activity (%)
C=C1/C(=C\C=C2/CCC[C@]3(C)[C@@H]([C@@H](C)[C@@H](C)CCC(C)(C)O)CC[C@@H]23)C[C@@H](O)C[C@@H]1O	8
C=C1/C(=C\C=C2/CCC[C@]3(C)[C@@H]([C@H](C)CCCC(C)(C)O)CC[C@@H]23)C[C@@H](O)C[C@@H]1O [CALCITRIOL]	100

# map each compound to its relative activity
1. C=C1/C(=C\C=C2/CCC[C@]3(C)[C@@H]([C@@H](C)[C@H](C)CCC(C)(C)O)CC[C@@H]23)C[C@@H](O)C[C@@H]1O
2. C=C1/C(=C\C=C2/CCC[C@]3(C)[C@@H]([C@H](C)[C@H](C)CCC(C)(C)O)CC[C@@H]23)C[C@@H](O)C[C@@H]1O

Response line:
12000
1.3

Prompt line: Give me measured relative activity, please, for this compound: "C=C1/C(=C\C=C2/CCC[C@]3(C)[C@@H]([C@H](C)[C@@H](C)CCC(C)(C)O)CC[C@@H]23)C[C@@H](O)C[C@@H]1O"
Response line: 100
